src = ChEMBL document CHEMBL3745608

- assayed_system: Suppressor of tumorigenicity 14 protein homolog (Mus musculus, UniProt P56677)
- Sequence (P56677 whole entry): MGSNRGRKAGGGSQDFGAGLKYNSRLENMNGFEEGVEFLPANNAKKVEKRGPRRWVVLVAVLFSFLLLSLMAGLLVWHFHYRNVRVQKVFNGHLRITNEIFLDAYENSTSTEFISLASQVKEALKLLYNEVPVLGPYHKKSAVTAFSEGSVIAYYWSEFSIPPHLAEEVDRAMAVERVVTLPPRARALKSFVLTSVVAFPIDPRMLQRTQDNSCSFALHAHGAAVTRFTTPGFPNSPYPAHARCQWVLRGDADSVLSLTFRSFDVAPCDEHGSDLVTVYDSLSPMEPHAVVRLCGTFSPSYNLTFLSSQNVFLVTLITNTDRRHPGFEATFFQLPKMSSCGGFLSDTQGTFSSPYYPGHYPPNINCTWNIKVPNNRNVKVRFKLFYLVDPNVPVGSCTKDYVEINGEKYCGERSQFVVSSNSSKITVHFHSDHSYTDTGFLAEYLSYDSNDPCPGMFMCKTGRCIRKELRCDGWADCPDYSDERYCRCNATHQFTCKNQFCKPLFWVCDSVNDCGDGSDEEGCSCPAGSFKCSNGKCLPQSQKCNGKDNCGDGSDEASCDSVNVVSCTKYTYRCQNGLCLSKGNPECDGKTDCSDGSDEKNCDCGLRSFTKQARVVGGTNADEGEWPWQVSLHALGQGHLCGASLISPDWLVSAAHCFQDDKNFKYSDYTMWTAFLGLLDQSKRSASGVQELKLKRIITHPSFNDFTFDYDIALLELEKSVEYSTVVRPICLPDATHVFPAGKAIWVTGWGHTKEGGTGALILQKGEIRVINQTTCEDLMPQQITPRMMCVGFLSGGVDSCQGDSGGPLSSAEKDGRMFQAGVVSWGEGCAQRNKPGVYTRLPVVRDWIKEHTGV
- assay_summary: Inhibition of mouse recombinant matriptase using Boc-QAR-AMC as substrate preincubated for 30 mins followed by substrate addition measured for 15 to 120 mins by plate reader analysis
Where a SMILES comes first, the peptide text is derived from it.
parameter_measured: Ki (nM)

In [3]: df
Out[3]:
                                    compound  qualifier_sign  number
 0  CC(=O)N[C@@H](CCC(N)=O)C(=O)N[C@@H](CC(C)C)C(=O)N[C@@H](CCCNC(=N)N)C(=O)c1nccs1               =    11.3
 1  CC(=O)N[C@@H](CC(C)C)C(=O)N[C@H](CCCNC(=N)N)C(=O)c1nccs1               =     246
 2  CC(=O)N[C@@H](CC(C)C)C(=O)N[C@@H](CCCNC(=N)N)C(=O)c1ccccc1               >   10000
 3  CC(=O)N[C@@H](CC(C)C)C(=O)N[C@H](CCCNC(=N)N)C(=O)c1nc2ccccc2s1               =     177
 4  CC(=O)N[C@@H](CCCCN)C(=O)N[C@@H](CCC(N)=O)C(=O)N[C@@H](CC(C)C)C(=O)O (Ac-Lys-Gln-Leu-OH)               >   10000
 5  CC(=O)N[C@@H](CC(C)C)C(=O)N[C@H](CCCNC(=N)N)C(=O)c1ccccc1               >   10000
 6  CC(=O)N[C@@H](CCC(N)=O)C(=O)N[C@@H](CC(C)C)C(=O)N[C@H](CCCNC(=N)N)C(=O)c1nccs1               =    11.1
 7  CC(=O)N[C@@H](CC(C)C)C(=O)N[C@@H](CCCNC(=N)N)C(=O)c1nccs1               =     334
 8  CC(=O)N[C@@H](CCCCN)C(=O)N[C@@H](CCC(N)=O)C(=O)N[C@@H](CC(C)C)C(=O)N[C@@H](CCCNC(=N)N)C(=O)c1nccs1               =    10.4
 9  CC(=O)N[C@@H](CC(C)C)C(=O)N[C@@H](CCCN=C(N)N)C(=O)c1nc2ccccc2s1               =     227
10  CC(=O)N[C@@H](CCCCN)C(=O)N[C@@H](CCC(N)=O)C(=O)N[C@@H](CC(C)C)C(=O)N[C@H](CCCNC(=N)N)C(=O)c1nccs1               =       8
11     CC(=O)N[C@@H](CCCNC(=N)N)C(=O)c1nccs1               >   10000

---

- assayed_system: Serine protease hepsin (Homo sapiens, UniProt P05981)
- Sequence (P05981 1-162 limits assumed): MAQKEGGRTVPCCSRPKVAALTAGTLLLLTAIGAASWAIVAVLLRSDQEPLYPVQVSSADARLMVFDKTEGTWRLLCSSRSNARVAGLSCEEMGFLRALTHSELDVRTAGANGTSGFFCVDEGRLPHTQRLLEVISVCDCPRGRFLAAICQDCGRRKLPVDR
- Sequence (P05981 163-417 limits assumed): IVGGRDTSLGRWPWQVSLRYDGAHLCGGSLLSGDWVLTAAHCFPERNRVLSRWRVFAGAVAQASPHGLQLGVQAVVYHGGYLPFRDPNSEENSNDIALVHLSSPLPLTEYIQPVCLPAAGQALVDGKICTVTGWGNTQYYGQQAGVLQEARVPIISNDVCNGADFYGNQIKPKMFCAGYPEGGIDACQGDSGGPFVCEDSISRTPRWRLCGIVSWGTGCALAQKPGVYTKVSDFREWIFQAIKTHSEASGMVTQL
- assay_summary: Inhibition of human recombinant hepsin using Boc-QAR-AMC as substrate preincubated for 30 mins followed by substrate addition measured for 15 to 120 mins by plate reader analysis
Where a SMILES comes first, the peptide text is derived from it.
Ki for assorted molecules
parameter_measured: Ki

                                   molecule                            assayed_system   result
0  CC(=O)N[C@@H](CCCCN)C(=O)N[C@@H](CCC(N)=O)C(=O)N[C@@H](CC(C)C)C(=O)O (Ac-Lys-Gln-Leu-OH)  Serine protease hepsin (Homo sapiens, UniProt P05981)  > 10 µM
1     CC(=O)N[C@@H](CCCNC(=N)N)C(=O)c1nccs1  Serine protease hepsin (Homo sapiens, UniProt P05981)  > 10 µM
2  CC(=O)N[C@@H](CC(C)C)C(=O)N[C@H](CCCNC(=N)N)C(=O)c1ccccc1  Serine protease hepsin (Homo sapiens, UniProt P05981)  > 10 µM
